# target_system: isolated recombinant JAK1 kinase domain (Homo sapiens (Human))
# Sequence (P23458 875-1153): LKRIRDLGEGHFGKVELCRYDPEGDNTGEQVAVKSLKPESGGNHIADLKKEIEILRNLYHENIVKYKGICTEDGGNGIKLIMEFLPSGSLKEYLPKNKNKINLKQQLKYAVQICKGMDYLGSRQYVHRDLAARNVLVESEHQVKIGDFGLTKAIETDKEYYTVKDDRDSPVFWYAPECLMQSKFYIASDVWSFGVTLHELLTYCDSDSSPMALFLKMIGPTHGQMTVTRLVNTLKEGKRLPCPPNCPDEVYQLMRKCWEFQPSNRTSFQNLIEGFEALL
# assay_procedure: JAK1 enzyme assay (Caliper LabChip, Ki)
# Format: biochemical
# conditions_used: isolated recombinant JAK1 kinase domain, 1.5 nM enzyme, ATP 25 μM
Consider the following compounds; for each one, report its Ki.
Only the number, expressed in nM, is required.

Lookup: Please report the measured Ki for CN1CCN(C(=O)Cn2cc(Nc3nc4c(C5=CC6CCC(C5)N6C(=O)CCC(F)(F)F)cccn4n3)cn2)CC1 (stereo not drawn) [Example 13]
Found: 0.9

Lookup: Please report the measured Ki for CN1CCN(C(=O)Cn2cc(Nc3nc4c(N5CC6CCC(C5)N6S(=O)(=O)Cc5ccccc5F)cccn4n3)cn2)CC1
Found: 0.9

Lookup: Please report the measured Ki for CN1CCN(C(=O)Cn2cc(Nc3nc4c(N5CC6CCC(C5)N6C(=O)NCC(F)(F)F)cccn4n3)cn2)CC1
Found: 0.9

Hey, just so you know, these numbers are from patent US10189836B2.
